protocol.notes: in vitro
Type: cell-based
condition.summary: human, Huh-3-1 replicon cells, three days, Cell Counting Kit-8; read-out: Cytotoxicity CC50

compound	CC50
CCCCCCCC(=O)CCCCCC/C=C/[C@H](C(=O)N[C@@H](Cc1ccc([N+](=O)[O-])cc1)C(=O)O)[C@@](O)(CC(=O)O)C(=O)O	> 1 µM
CCCCCCCC(=O)CCCCCC/C=C/[C@H](C(=O)N[C@@H](Cc1ccc(OCC=C(C)C)cc1)C(N)=O)[C@@](O)(CC(N)=O)C(N)=O	> 5 µM
CCCCCCCCCCCCCC/C=C/[C@H](C(=O)N[C@@H](Cc1ccc(OCC=C(C)C)cc1)C(=O)O)[C@@](O)(CC(=O)O)C(=O)O	> 50 µM
CCCCCCCC(=O)CCCCCC/C=C/[C@H](C(=O)N[C@@H](Cc1ccc(C(F)(F)F)cc1)C(=O)O)[C@@](O)(CC(=O)O)C(=O)O	> 1 µM
CCCCCCCC(CCCCCC/C=C/[C@H](C(=O)N[C@@H](Cc1ccc(OCC=C(C)C)cc1)C(=O)O)[C@@](O)(CC(=O)O)C(=O)O)=NOC	> 50 µM
CCCCCCCC(=O)CCCCCC/C=C/[C@H](C(=O)N[C@@H](Cc1ccc(OCC=C(C)C)cc1)C(=O)OC)[C@@](O)(CC(=O)OC)C(=O)O	> 1 µM
CCCCCCCC(=O)CCCCCC/C=C/[C@H](C(=O)N[C@@H](Cc1ccc(OCC=C(C)C)cc1)C(=O)O)[C@@](O)(CC(=O)O)C(=O)O	> 5 µM
CCCCCCCC(=O)CCCCCC/C=C/[C@H](C(=O)N[C@@H](Cc1ccc(C#N)cc1)C(=O)O)[C@@](O)(CC(=O)O)C(=O)O	> 1 µM
CCCCCCCC(O)CCCCCC/C=C/[C@H](C(=O)N[C@@H](Cc1ccc(OCC=C(C)C)cc1)C(=O)O)[C@@](O)(CC(=O)O)C(=O)O (stereo partly drawn)	> 5 µM
CCCCCCCC(=O)CCCCCC/C=C/[C@H](C(=O)N[C@@H](Cc1ccc(OCCC(C)C)cc1)C(=O)O)[C@@](O)(CC(=O)O)C(=O)O	> 5 µM
CCCCCCCC(=O)CCCCCC/C=C/[C@H](C(=O)N[C@@H](Cc1ccc(O)cc1)C(=O)O)[C@@](O)(CC(=O)O)C(=O)O	> 5 µM
CCCCCCCC(=O)CCCCCC/C=C/[C@H](C(=O)N[C@@H](Cc1ccc(Cl)cc1)C(=O)O)[C@@](O)(CC(=O)O)C(=O)O	> 1 µM
